biological target: Muscle, skeletal receptor tyrosine-protein kinase (Homo sapiens); settings: at 1 µM;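 also: reported value is the mean percent inhibition of MuSK kinase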
For each entry below, report its inhibition value.
One number for each entry, in %.

Reference set (5 entries):
>  <chemical string>
NS(=O)(=O)c1ccc(NC=C2C(=O)Nc3ccc4ncsc4c32)cc1

>  <result value>
73

$$$$
>  <chemical string>
C[C@@H](Oc1cc(-n2cnc3ccc(OC[C@@H](O)CO)cc32)sc1C(N)=O)c1ccccc1Cl

>  <result value>
51.4

$$$$
>  <chemical string>
NS(=O)(=O)c1ccc(-c2cc3ccncc3cc2OCc2ccccc2)cc1

>  <result value>
0.07

$$$$
>  <chemical string>
CCOc1nccc2c1nc(-c1nonc1N)n2CC

>  <result value>
8.7

$$$$
>  <chemical string>
CCn1c(-c2nonc2N)nc2c(C#CC(C)(C)O)nc(OCCNC)cc21

>  <result value>
3.32

$$$$

For each of the items listed, what is its inhibition?
1. COc1ccc2ncnc(Nc3ccc(OCc4ccccc4)cc3)c2c1
2. CN(C)C(=O)O[C@@H]1CN[C@@H](C#Cc2cc3ncnc(Nc4ccc(OCc5cccc(F)c5)c(Cl)c4)c3s2)C1
3. C[C@@H](Oc1cc(-n2cnc3ccc(OCC4CCN(C)CC4)cc32)sc1C(N)=O)c1ccccc1C(F)(F)F
4. ON=C1CCc2cc(-c3nc(C4CCNCC4)[nH]c3-c3ccncc3)ccc21
5. COc1cc2ncnc(Nc3ccc4c(cnn4Cc4ccccc4)c3)c2cc1OC
6. Cc1ccc(C(=O)NC2CC2)cc1-c1ccc2[nH]ncc2c1
7. COC(=O)c1cncc(/C=C/c2c(C)cc(O)cc2C)c1

1: 1.74; 2: 1.14; 3: 76; 4: 1.9; 5: 2.89; 6: 2.51; 7: 3.88

For each of the items listed, what is its inhibition?
1. Oc1cccc(-c2nc(-c3ccccc3)[nH]c2-c2ccncc2)c1
2. O=S(=O)(CCOCc1ccc(-c2ccc3ncnc(Nc4ccc(OCc5cccc(F)c5)c(Cl)c4)c3c2)o1)c1ccccc1

8.69
5.38

###

target: Proto-oncogene tyrosine-protein kinase Src (Homo sapiens); details: at 1 µM
For each entry below, report its inhibition value.
Answers are plain numbers, in %.

Reference set (5 entries):
>  <chemical string>
NS(=O)(=O)c1ccc(N/N=C2\C(=O)Nc3ccc(Cl)cc32)cc1

>  <target>
Proto-oncogene tyrosine-protein kinase Src (Homo sapiens)

>  <assay readout>
inhibition

>  <unit abbrev>
%

>  <result value>
14.1

$$$$
>  <chemical string>
Cc1nc(-c2ccccc2)n2nc(NCCCN3CCOCC3)ncc12

>  <target>
Proto-oncogene tyrosine-protein kinase Src (Homo sapiens)

>  <assay readout>
inhibition

>  <unit abbrev>
%

>  <result value>
6.81

$$$$
>  <chemical string>
FC(F)(F)c1ccc(-c2nn3ncccc3c2-c2ccnc(Nc3ccc4c(c3)OCCO4)n2)cc1

>  <target>
Proto-oncogene tyrosine-protein kinase Src (Homo sapiens)

>  <assay readout>
inhibition

>  <unit abbrev>
%

>  <result value>
15.8

$$$$
>  <chemical string>
CCn1c(-c2nonc2N)nc2c(C#CC(C)(C)O)nc(OCCNC)cc21

>  <target>
Proto-oncogene tyrosine-protein kinase Src (Homo sapiens)

>  <assay readout>
inhibition

>  <unit abbrev>
%

>  <result value>
11.9

$$$$
>  <chemical string>
Nc1nccc(C#Cc2cncnc2Nc2ccc(OCc3cccc(F)c3)c(Cl)c2)n1

>  <target>
Proto-oncogene tyrosine-protein kinase Src (Homo sapiens);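 also: each value is an averaged percent inhibition of SRC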

>  <assay readout>
inhibition

>  <unit abbrev>
%

>  <result value>
7.62

$$$$

For each of the items listed, what is its inhibition?
1. C[C@@H](Oc1cc(-n2cnc3ccc(OC[C@@H](O)CO)cc32)sc1C(N)=O)c1ccccc1Cl
2. Nc1nccc(-c2c(-c3ccc(F)cc3)ncn2CCCN2CCOCC2)n1
3. NS(=O)(=O)c1ccc(NC=C2C(=O)Nc3ccc4ncsc4c32)cc1
4. NS(=O)(=O)c1cccc(-c2cc3ccncc3cc2OCc2ccccc2)c1
5. COc1ccc(-c2nn3ncccc3c2-c2ccnc(Nc3cccc(C(F)(F)F)c3)n2)cc1
6. [O-][S+]1CCN(Cc2ccc(-c3ccc4ncnc(Nc5ccc(OCc6ccccc6)c(Cl)c5)c4c3)o2)CC1
7. COc1cc(/C=N/Nc2ncnc3c2cnn3C(C)C)ccc1O
8. CCOc1nccc2c1nc(-c1nonc1N)n2CC

5.14
8.77
61.9
11.2
10
6.34
72.7
5.71

For each of the items listed, what is its inhibition?
1. COC(=O)Nc1nc2cc(Oc3ccc(NC(=O)Nc4cccc(Br)c4)cc3)ccc2[nH]1
2. Cc1ccc2c(c1)/C(=N/Nc1ccc(S(N)(=O)=O)cc1)C(=O)N2

1. 6.9
2. 6.44

For each of the items listed, what is its inhibition?
1. Oc1cccc(-c2nc(-c3ccccc3)[nH]c2-c2ccncc2)c1
2. NS(=O)(=O)c1cccc(Nc2cc(-c3ccc(F)cc3)n[nH]2)c1

[63.2, 10.4]

For each of the items listed, what is its inhibition?
1. ON=C1CCc2cc(-c3nc(C4CCNCC4)[nH]c3-c3ccncc3)ccc21
2. CCS(=O)(=O)c1ccc(OC)c(Nc2nccc(N(C)c3ccc4c(C)n[nH]c4c3)n2)c1

1: 0.66; 2: 81.2

Reference source for all entries: ChEMBL document CHEMBL1961873
